molecular target: human Farnesoid X Receptor (FXR) ligand binding domain (GST-FXR LBD) (Homo sapiens, UniProt Q96RI1); assay: Human GST-FXR LBD co-activator interaction assay (FXR HTRF assay); details: GST-FXR LBD interaction with biotin-labeled SRC-1 peptide, FRET, response relative to GW4064, read-out: FXR coactivator interaction assay (HTRF)
Sequence (Q96RI1 193-472 isoform Q96RI1-2): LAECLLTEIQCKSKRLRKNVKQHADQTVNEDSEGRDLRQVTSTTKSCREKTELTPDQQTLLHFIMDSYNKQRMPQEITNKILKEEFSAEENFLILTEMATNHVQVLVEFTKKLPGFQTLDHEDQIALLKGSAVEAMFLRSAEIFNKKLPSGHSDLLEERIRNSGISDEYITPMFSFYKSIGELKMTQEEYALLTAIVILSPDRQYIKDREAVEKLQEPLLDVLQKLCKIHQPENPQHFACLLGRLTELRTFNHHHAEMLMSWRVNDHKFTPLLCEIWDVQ
pEC50: −log10 of the molar value.
measure.name: pEC50

Past entries and their recorded results:
{"smiles.data": "Cn1nc(C(=O)N(CCOc2ccc(C(=O)O)cc2C(F)(F)F)Cc2ccccc2F)c2c1-c1cc(Cl)ccc1OC2", "observed.value": 8.01}
{"smiles.data": "Cn1nc(C(=O)N(Cc2ccccc2)Cc2ccc(C(=O)O)cc2F)c2c1-c1cc(Cl)ccc1OC2", "observed.value": 8.02}
{"smiles.data": "Cn1nc(C(=O)N(Cc2ccccc2)Cc2ccc(C(=O)O)c(F)c2)c2c1-c1cc(Cl)ccc1OC2", "observed.value": 8.19}
{"smiles.data": "Cn1nc(C(=O)N(CCOc2ccc(C(=O)O)cc2F)Cc2cccc(F)c2)c2c1-c1cc(F)c(F)cc1OC2", "observed.value": 7.55}
{"smiles.data": "Cn1nc(C(=O)N(CC(=O)Nc2cc(C(=O)O)ccc2F)Cc2ccccc2)c2c1-c1cc(Cl)ccc1OC2", "observed.value": 9.17}
{"smiles.data": "Cn1nc(C(=O)N(Cc2ccccc2F)Cc2ccc(C(=O)O)cc2F)c2c1-c1cc(F)ccc1OC2", "observed.value": 7.49}
{"smiles.data": "Cn1nc(C(=O)N(CCOc2ccc(C(=O)O)cc2)Cc2ccccc2F)c2c1-c1cc(Cl)ccc1OC2", "observed.value": 7.82}
{"smiles.data": "Cn1nc(C(=O)N(CC(=O)NCC2(C(=O)O)CC2)Cc2ccccc2F)c2c1-c1cc(Cl)ccc1OC2", "observed.value": 8.60}

a: Cc1cccc(CN(Cc2ccc(C(=O)O)cc2F)C(=O)c2nn(C)c3c2COc2ccc(F)cc2-3)c1
b: Cn1nc(C(=O)N(CC(=O)Nc2cc(C(=O)O)ccc2F)Cc2ccccc2)c2c1-c1cc(F)c(F)cc1OC2
c: Cn1nc(C(=O)N(CC(=O)Nc2cc(C(=O)O)ccc2F)Cc2ccccc2F)c2c1-c1cc(Cl)ccc1OCC2
d: Cn1nc(C(=O)N(CCOc2ccc(C(=O)O)cc2F)Cc2cccc(F)c2)c2c1-c1cc(F)ccc1OC2
**Q:** I would appreciate it if you could sort these 4 compounds by pEC50, starting from the smallest number. Answer by listing the labels in the requested order.
**A:** a, d, c, b
(a: 7.46, d: 7.66, c: 8.68, b: 9.30)

A: Cn1nc(C(=O)N(Cc2ccc(C(=O)O)cc2)Cc2cccc(F)c2F)c2c1-c1cc(Cl)ccc1OC2
B: Cc1cc(Cl)cc2c1OCc1c(C(=O)N(CC(=O)Nc3cccc(C(=O)O)c3)Cc3ccccc3F)nn(C)c1-2
**Q:** Of A and B , which carries the smaller reported pEC50 figure? Identify your pick by its label.
**A:** A

====

biological target: human Farnesoid X Receptor (FXR) ligand binding domain (GST-FXR LBD) (Homo sapiens); test: Human GST-FXR LBD co-activator interaction assay (FXR HTRF assay); conditions: GST-FXR LBD interaction with biotin-labeled SRC-1 peptide, FRET, response relative to GW4064, read-out: FXR coactivator interaction assay (HTRF)
pEC50: −log10 of the molar value.
measure.name: pEC50

{"compound": "Cn1nc(C(=O)N(CC(=O)Nc2cccc(C(=O)O)c2)Cc2ccccc2F)c2c1-c1ccc(Cl)cc1OC2 [Compound 9]", "system": "human Farnesoid X Receptor (FXR) ligand binding domain (GST-FXR LBD) (Homo sapiens)", "pEC50": 8.44}
{"compound": "Cc1cccc(CN(Cc2ccc(C(=O)O)cc2F)C(=O)c2nn(C)c3c2COc2ccc(Cl)cc2-3)c1 [Compound 84]", "system": "human Farnesoid X Receptor (FXR) ligand binding domain (GST-FXR LBD) (Homo sapiens)", "pEC50": 7.74}
{"compound": "Cn1nc(C(=O)N(CCNc2cc(C(=O)O)ccc2F)Cc2ccccc2F)c2c1-c1cc(F)ccc1OC2 [Compound 69]", "system": "human Farnesoid X Receptor (FXR) ligand binding domain (GST-FXR LBD) (Homo sapiens)", "pEC50": 7.60}
{"compound": "Cn1nc(C(=O)N(Cc2ccccc2F)Cc2ccc(C(=O)O)cc2F)c2c1-c1cc(Cl)ccc1OC2 [Compound 93]", "system": "human Farnesoid X Receptor (FXR) ligand binding domain (GST-FXR LBD) (Homo sapiens)", "pEC50": 7.89}
{"compound": "Cn1nc(C(=O)N(CCNc2cc(C(=O)O)ccc2F)Cc2ccccc2)c2c1-c1cc(F)c(F)cc1OC2 [Compound 74]", "system": "human Farnesoid X Receptor (FXR) ligand binding domain (GST-FXR LBD) (Homo sapiens)", "pEC50": 7.26}
{"compound": "Cn1nc(C(=O)N(CC(=O)Nc2cc(F)cc(C(=O)O)c2)Cc2ccccc2F)c2c1-c1cc(Cl)ccc1OC2 [Compound 38]", "system": "human Farnesoid X Receptor (FXR) ligand binding domain (GST-FXR LBD) (Homo sapiens)", "pEC50": 8.59}
{"compound": "Cn1nc(C(=O)N(CCNc2cc(C(=O)O)ccc2F)Cc2ccccc2)c2c1-c1cc(F)ccc1OC2 [Compound 71]", "system": "human Farnesoid X Receptor (FXR) ligand binding domain (GST-FXR LBD) (Homo sapiens)", "pEC50": 7.66}
{"compound": "Cn1nc(C(=O)N(CC(=O)Nc2cccc(C(=O)O)c2)Cc2ccccc2F)c2c1-c1ccc(F)cc1OC2 [Compound 8]", "system": "human Farnesoid X Receptor (FXR) ligand binding domain (GST-FXR LBD) (Homo sapiens)", "pEC50": 8.48}
{"compound": "Cn1nc(C(=O)N(CCNc2cc(C(=O)O)ccc2F)Cc2ccccc2)c2c1-c1cc(Cl)ccc1OC2 [Compound 72]", "system": "human Farnesoid X Receptor (FXR) ligand binding domain (GST-FXR LBD) (Homo sapiens)", "pEC50": 8.59}
{"compound": "Cn1nc(C(=O)N(Cc2ccc(C(=O)O)cc2)Cc2cc(F)cc(F)c2)c2c1-c1cc(F)ccc1OC2 [Compound 83]", "system": "human Farnesoid X Receptor (FXR) ligand binding domain (GST-FXR LBD) (Homo sapiens)", "pEC50": 7.85}

A: Cn1nc(C(=O)N(CC(=O)Nc2cccc(C(=O)O)c2)CC2CCCC2)c2c1-c1cc(Cl)ccc1OC2 [Compound 37]
B: Cn1nc(C(=O)N(CCOc2ccc(C(=O)O)cc2F)Cc2ccccc2)c2c1-c1cc(Cl)ccc1OC2 [Compound 55]
**Q:** Hi, I'm comparing A with B and wondering which one has the bigger number for pEC50. Any idea? # respond with the chosen item's label
**A:** B
(B: 7.89, A: 7.62)

P: Cn1nc(C(=O)N(CC(=O)Nc2cccc(C(=O)O)c2)Cc2ccccc2)c2c1-c1cc(Cl)ccc1OC2 [Compound 31]
Q: Cn1nc(C(=O)N(CCOc2c(F)cc(C(=O)O)cc2F)Cc2ccccc2F)c2c1-c1cc(Cl)ccc1OC2 [Compound 50]
**Q:** Which entry has a larger number for pEC50, P or Q ? Your choice should be expressed through its label.
**A:** P
(P: 9.33, Q: 7.96)

I: Cn1nc(C(=O)N(CC(=O)Nc2cccc(C(=O)O)c2)Cc2ccccc2F)c2c1-c1cc(Cl)c(F)cc1OC2 [Compound 25]
II: Cn1nc(C(=O)N(CCNc2cc(C(=O)O)ccc2F)Cc2cccc(F)c2)c2c1-c1cc(Cl)ccc1OC2 [Compound 65]
**Q:** Dear colleague, could you let me know whether I or II has the lower recorded pEC50? Thanks. Selection: enter the item's label.
**A:** II
(II: 8.15, I: 9.15)

1: Cn1nc(C(=O)N(Cc2ccc(C(=O)O)cc2)Cc2cncc(F)c2)c2c1-c1cc(Cl)ccc1OC2 [Compound 88]
2: Cn1nc(C(=O)N(CC(=O)NCC(C)(C)C(=O)O)Cc2ccccc2F)c2c1-c1cc(Cl)ccc1OC2 [Compound 41]
3: Cn1nc(C(=O)N(CC(=O)Nc2cccc(C(=O)O)c2)Cc2ccccc2F)c2c1-c1cc(F)c(F)cc1OC2 [Compound 10]
4: Cc1cc2c(cc1Cl)-c1c(c(C(=O)N(CC(=O)Nc3cccc(C(=O)O)c3)Cc3ccccc3F)nn1C)CO2 [Compound 13]
**Q:** Sort (4 compounds) by pEC50: min first. Form entry: labels listed in requested order.
**A:** 1, 2, 3, 4
(1: 7.82, 2: 8.40, 3: 8.77, 4: 9.10)

a: Cn1nc(C(=O)N(Cc2ccc(C(=O)O)c(F)c2)Cc2ccccc2F)c2c1-c1cc(Cl)ccc1OC2 [Compound 97]
b: Cn1nc(C(=O)N(Cc2cccc(F)c2)Cc2ccc(C(=O)O)c(F)c2)c2c1-c1cc(Cl)ccc1OC2 [Compound 90]
**Q:** Given the listed records, identify the one among a and b with higher pEC50. When you have decided, please share the label of that item.
**A:** b
(b: 8.30, a: 7.77)

A: Cc1cc(F)cc(CN(Cc2ccc(C(=O)O)cc2)C(=O)c2nn(C)c3c2COc2ccc(Cl)cc2-3)c1 [Compound 82]
B: Cn1nc(C(=O)N(CCNc2cc(C(=O)O)ccc2F)Cc2ccccc2F)c2c1-c1ccccc1OC2 [Compound 70]
C: Cn1nc(C(=O)N(CCOc2ccc(C(=O)O)cc2F)Cc2ccccc2)c2c1-c1cc(F)ccc1OC2 [Compound 56]
D: Cn1nc(C(=O)N(CCNc2cc(C(=O)O)ccc2F)Cc2ccccc2F)c2c1-c1cc(Cl)ccc1OC2 [Compound 101]
**Q:** Number of compounds to sort: 4. Sort criterion: pEC50, ascending. Respond with the label ranking, as requested.
**A:** B, C, A, D

A: Cn1nc(C(=O)N(CCOc2c(F)cc(C(=O)O)cc2F)Cc2ccccc2F)c2c1-c1cc(F)ccc1OC2 [Compound 53]
B: Cn1nc(C(=O)N(Cc2ccc(C(=O)O)cc2)Cc2cccc(F)c2)c2c1-c1cc(F)ccc1OC2 [Compound 77]
**Q:** Of A and B , which one carries the higher reported pEC50? Answer with the label corresponding to your selection.
**A:** B
(B: 8.10, A: 7.77)
